# STUDY_SYSTEM: human CYP11B1 (Homo sapiens, UniProt P15538)
# Construct: The main elements of an expression plasmid include ORF of human CYP11B1 or human CYP11B2; expressed in transfected cells
# Sequence (P15538 25-503): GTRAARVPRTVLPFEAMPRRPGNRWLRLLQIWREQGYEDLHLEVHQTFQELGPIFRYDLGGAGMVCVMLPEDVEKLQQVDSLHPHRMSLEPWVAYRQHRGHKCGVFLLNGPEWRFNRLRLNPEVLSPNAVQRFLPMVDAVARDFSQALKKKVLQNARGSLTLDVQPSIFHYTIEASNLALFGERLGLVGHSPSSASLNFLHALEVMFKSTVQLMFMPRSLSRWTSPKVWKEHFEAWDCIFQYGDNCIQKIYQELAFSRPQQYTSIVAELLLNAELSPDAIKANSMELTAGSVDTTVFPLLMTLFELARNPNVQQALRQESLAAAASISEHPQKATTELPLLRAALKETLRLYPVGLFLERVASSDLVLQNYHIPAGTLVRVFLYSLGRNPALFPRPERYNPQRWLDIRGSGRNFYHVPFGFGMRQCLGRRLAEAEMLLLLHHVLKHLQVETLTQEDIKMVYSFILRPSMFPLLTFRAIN
# PROTOCOL_SUMMARY: G-402 cell enzyme experiment, CYP11B1 (cortisol product, HTRF), selectivity versus CYP11B2
# Assay type: cell-based
# EXPERIMENTAL_SETUP: human selective factor: ratio of CYP11B1 EC50 to CYP11B2 EC50; G-402 cells
For each of the compounds below, state its hsF.
Response body: numeric value in x, unit text excluded.

(Q) Give hsF (human CYP11B1 (Homo sapiens, UniProt P15538)) of the following compound: Cn1cc(C(=O)N2CC(Oc3cncc(-c4ccc5c(ccc(=O)n5C)c4)c3)C2)cn1
(A) 2014

(Q) Give hsF (human CYP11B1 (Homo sapiens, UniProt P15538)) of the following compound: COc1ccc2cc(-c3cncc(N4CC5(CCN(C(=O)c6cnn(C)c6)CC5)C4)c3)ccc2n1
(A) 174

(Q) Give hsF (human CYP11B1 (Homo sapiens, UniProt P15538)) of the following compound: COc1ccc2cc(-c3cncc(NC4CCN(C(=O)c5cnn(C)c5)CC4)c3)ccc2n1
(A) 159

(Q) Give hsF (human CYP11B1 (Homo sapiens, UniProt P15538)) of the following compound: COc1ccc2cc(-c3cncc(NC4CN(C(=O)c5cnn(C6CC6)c5)C4)c3)ccc2n1
(A) 404

(Q) Give hsF (human CYP11B1 (Homo sapiens, UniProt P15538)) of the following compound: COc1ccc2cc(-c3cncc(N4CCC(NC(=O)c5cnn(C)c5)CC4)n3)ccc2n1
(A) 159

(Q) Give hsF (human CYP11B1 (Homo sapiens, UniProt P15538)) of the following compound: COc1ccc2cc(-c3cncc(N4CC5(CN(C(=O)C6(C#N)CC6)C5)C4)c3)ccc2n1
(A) 261

(Q) Give hsF (human CYP11B1 (Homo sapiens, UniProt P15538)) of the following compound: COc1ccc2cc(-c3cncc(N4CC5(CN(C(C)=O)C5)C4)n3)ccc2n1
(A) 229

(Q) Give hsF (human CYP11B1 (Homo sapiens, UniProt P15538)) of the following compound: Cn1cc(C(=O)N2CCC3(CC2)CN(c2cncc(-c4ccc5c(c4)sc(=O)n5C)c2)C3)cn1
(A) 1292

(Q) Give hsF (human CYP11B1 (Homo sapiens, UniProt P15538)) of the following compound: COc1ccc2cc(-c3cncc(N4CC5(CN(C(C)=O)C5)C4)c3)ccc2n1
(A) 1285

(Q) Give hsF (human CYP11B1 (Homo sapiens, UniProt P15538)) of the following compound: COc1ccc2cc(-c3cncc(N4CC5(CN(C(=O)C6(O)CC6)C5)C4)c3)ccc2n1
(A) 971

(Q) Give hsF (human CYP11B1 (Homo sapiens, UniProt P15538)) of the following compound: CCC(=O)N[C@@H]1CCCc2c(-c3ccc4c(c3)COC(=O)N4C)cncc21
(A) 144

(Q) Give hsF (human CYP11B1 (Homo sapiens, UniProt P15538)) of the following compound: CN1C(=O)OCc2cc(-c3cncc(C4=CCN(S(=O)(=O)C5CC5)CC4)c3)ccc21
(A) 394

(Q) Give hsF (human CYP11B1 (Homo sapiens, UniProt P15538)) of the following compound: CCC(=O)N1CC2(C1)CN(c1cncc(-c3ccc4nc(OC)ccc4c3)c1)C2
(A) 2766

(Q) Give hsF (human CYP11B1 (Homo sapiens, UniProt P15538)) of the following compound: COc1ccc2cc(-c3cncc(N4CC5(CN(C(=O)c6ccc(C)nc6)C5)C4)c3)ccc2n1
(A) 1652
